B1: G/T mismatch-specific thymine DNA glycosylase (Mus musculus), P56581 (parent)
chain: MDAEAARSYSLEQVQALYSFPFQQMMAEVPNMAVTTGQQVPAVAPNMATVTEQQVPEDAPVQEPAPEAPKRRKRKPRAAEPQEPVEPKKPATSKKSGKSTKSKEKQEKITDAFKVKRKVDRFNGVSEAELLTKTLPDILTFNLDIVIIGINPGLMAAYKGHHYPGPGNHFWKCLFMSGLSEVQLNHMDDHTLPGKYGIGFTNMVERTTPGSKDLSSKEFREGGRILVQKLQKYQPRIAVFNGKCIYEIFSKEVFGVKVKNLEFGLQPHKIPDTETLCYVMPSSSARCAQFPRAQDKVHYYIKLKDLRDQLKGIERNADVQEVQYTFDLQLAQEDAKKMAVKEEKYDPGYEAAYGGAYGENPCNGEPCGIASNGLTAHSAEPRGEAAPSDVPNGQWMAQSFAEQIPSFNNCGTREQEEESHA

- Variants of: B1
- setup.conditions: with ncoa1_human NCOA1, Q15788
- Sequence (Q15788 whole entry): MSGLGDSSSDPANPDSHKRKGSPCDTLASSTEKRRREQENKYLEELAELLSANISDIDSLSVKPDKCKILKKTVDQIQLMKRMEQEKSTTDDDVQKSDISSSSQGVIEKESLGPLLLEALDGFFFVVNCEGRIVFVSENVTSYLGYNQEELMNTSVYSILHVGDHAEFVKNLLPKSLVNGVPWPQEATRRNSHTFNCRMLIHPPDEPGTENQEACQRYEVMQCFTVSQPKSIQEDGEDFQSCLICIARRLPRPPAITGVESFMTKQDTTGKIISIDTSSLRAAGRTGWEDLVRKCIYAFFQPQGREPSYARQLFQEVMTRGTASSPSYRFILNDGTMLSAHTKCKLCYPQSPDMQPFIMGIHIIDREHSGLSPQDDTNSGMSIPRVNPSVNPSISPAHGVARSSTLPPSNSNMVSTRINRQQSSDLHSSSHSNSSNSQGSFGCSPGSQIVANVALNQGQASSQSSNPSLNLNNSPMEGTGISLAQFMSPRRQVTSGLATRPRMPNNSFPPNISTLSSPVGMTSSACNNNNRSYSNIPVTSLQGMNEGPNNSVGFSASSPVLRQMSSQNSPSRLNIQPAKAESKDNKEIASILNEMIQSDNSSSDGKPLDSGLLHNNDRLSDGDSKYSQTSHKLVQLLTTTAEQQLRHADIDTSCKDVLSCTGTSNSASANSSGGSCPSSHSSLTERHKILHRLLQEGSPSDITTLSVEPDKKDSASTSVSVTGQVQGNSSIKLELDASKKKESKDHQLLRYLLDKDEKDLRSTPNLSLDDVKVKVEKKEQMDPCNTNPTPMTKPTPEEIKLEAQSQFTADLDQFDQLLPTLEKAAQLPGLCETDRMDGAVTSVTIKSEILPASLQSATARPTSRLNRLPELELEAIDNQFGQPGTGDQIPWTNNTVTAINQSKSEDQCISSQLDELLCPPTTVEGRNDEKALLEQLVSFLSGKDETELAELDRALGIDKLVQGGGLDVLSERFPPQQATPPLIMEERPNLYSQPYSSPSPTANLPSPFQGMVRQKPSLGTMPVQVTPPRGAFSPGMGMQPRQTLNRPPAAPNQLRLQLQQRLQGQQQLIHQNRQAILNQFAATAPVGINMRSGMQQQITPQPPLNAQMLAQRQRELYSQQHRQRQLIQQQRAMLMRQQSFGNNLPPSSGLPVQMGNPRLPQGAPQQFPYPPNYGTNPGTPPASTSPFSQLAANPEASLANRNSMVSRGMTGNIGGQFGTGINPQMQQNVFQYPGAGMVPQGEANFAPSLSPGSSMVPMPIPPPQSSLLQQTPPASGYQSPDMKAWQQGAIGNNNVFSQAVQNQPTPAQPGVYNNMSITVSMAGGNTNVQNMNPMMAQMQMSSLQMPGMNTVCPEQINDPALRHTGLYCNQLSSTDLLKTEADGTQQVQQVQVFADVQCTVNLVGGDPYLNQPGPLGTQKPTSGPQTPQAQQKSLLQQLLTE
reported.endpoint: effect of a mutation on the interaction

INSERT INTO measurements (var, value_measured) VALUES
  ('D144A;V146A;I147A', 'with no effect'),
  ('N151A', 'with no effect');

Measured values drawn from IntAct's records for PubMed 16282588 for this set.
